Below, each entry is listed alongside its reported T/C.
- System: L1210 leukemia ip in BDF1 mice, survival T/C
- Assay Protocol: NCI In Vivo Anticancer Drug Screen. Data for tumor model L1210 Leukemia (intraperitoneal) in B6D2F1 (BDF1) mice
- Run Parameters: endpoint: mean survival time; dose: 100.0 mg/kg/injection; schedule: Q01DX009 (ip); vehicle: saline with Tween-80; higher = longer survival
Toxic doses and inconclusive results are not listed.

Reference set (8 entries):
- Compound: "Cc1ccc(C(=O)c2ccccc2C(=O)O)cc1C"
  Target Entity: "L1210 leukemia ip in BDF1 mice, survival T/C"
  Result: "90 % of control"
- Compound: "CN(C)/C=N\\c1c(C#N)c(CC#N)nn1-c1ccccc1"
  Target Entity: "L1210 leukemia ip in BDF1 mice, survival T/C"
  Result: "88 % of control"
- Compound: "CC1(C)OC2OC(C(O)CSCc3ccccc3)C(O)C2O1 (configuration not stated)"
  Target Entity: "L1210 leukemia ip in BDF1 mice, survival T/C"
  Result: "93 % of control"
- Compound: "CC(CO)(CO)NC(=O)Nc1ccccc1F"
  Target Entity: "L1210 leukemia ip in BDF1 mice, survival T/C"
  Result: "113 % of control"
- Compound: "CCCCn1nnc2c(NCCc3cnc[nH]3)nc(N)nc21"
  Target Entity: "L1210 leukemia ip in BDF1 mice, survival T/C"
  Result: "95 % of control"
- Compound: "NC(=O)C(CC(=O)OCc1ccccc1)NC(=O)OCc1ccccc1 (configuration not stated)"
  Target Entity: "L1210 leukemia ip in BDF1 mice, survival T/C"
  Result: "92 % of control"
- Compound: "CC(C(=O)c1ccc(-c2ccccc2)cc1)C(Cl)c1ccccc1 (configuration not stated)"
  Target Entity: "L1210 leukemia ip in BDF1 mice, survival T/C"
  Result: "106 % of control"
- Compound: "COc1cc(CC2=NCCc3cc(OC)c(OCc4ccccc4)cc32)ccc1OCc1ccccc1"
  Target Entity: "L1210 leukemia ip in BDF1 mice, survival T/C"
  Result: "94 % of control"

Read the next record carefully.
For reference, reported T/C for CC1CC([O-])=N/[N+]1=C\c1ccccc1 (configuration not stated) stands at 96 % of control

----------
- System: L1210 leukemia ip in BDF1 mice, survival T/C
- Assay Protocol: NCI In Vivo Anticancer Drug Screen. Data for tumor model L1210 Leukemia (intraperitoneal) in B6D2F1 (BDF1) mice
- Run Parameters: endpoint: mean survival time; dose: 50.0 mg/kg/injection; schedule: Q01DX009 (ip); vehicle: saline with Tween-80; higher = longer survival
Inconclusive results and toxic doses are left out.
This listing pairs compounds with measured T/C.

Example entries begin here.
- Compound: "COc1cc(/C=N/NC(=O)CNC(=O)NCc2ccccc2)ccc1O"
  Result: "92 % of control"
- Compound: "CCN(CC)C(=O)/C=C\\c1ccccc1"
  Result: "102 % of control"
- Compound: "COC1CCCCC1I (centres undefined)"
  Result: "95 % of control"

--- query ---
Sure, the documented T/C for CN(C)/C=N\c1c(C#N)c(CC#N)nn1-c1ccccc1 is 100 % of control

----------
- Tested on: L1210 leukemia ip in BDF1 mice, survival T/C
- Assay Protocol: NCI In Vivo Anticancer Drug Screen. Data for tumor model L1210 Leukemia (intraperitoneal) in B6D2F1 (BDF1) mice
- Run Parameters: endpoint: mean survival time; dose: 400.0 mg/kg/injection; schedule: Q01DX001 (ip); vehicle: carboxymethylcellulose (CMC)
Inconclusive results and toxic doses are left out. Cut-off read from the data, not from the text of the source: active = T/C of 150% or more; inactive = T/C below 125%.
Bench note: report the call from y (active), n (inactive)

- Molecule: "CC(O)(c1ccccc1)c1ccccc1S(=O)(=O)Nc1ccccc1 (stereo not given)"
  Qualitative Label: "n"
- Molecule: "COC(=O)CC12CCCC(C)(CC(=O)N1)C2 (stereo not given)"
  Qualitative Label: "n"
- Molecule: "CC(C)CC(N)C(=O)O (stereo not given)"
  Qualitative Label: "n"
- Molecule: "O=C(Nc1ccc(Cl)c(Cl)c1)Nc1ccc(Cl)cc1O"
  Qualitative Label: "n"
- Molecule: "O=C1CC2=CCCCc3cccc1c32"
  Qualitative Label: "n"

Prompt: Answer briefly: the call reported for CCOC(=O)NC1C2CC3C(C2)C31 (stereo not given) in this assay.
Response: n

Prompt: Assay result, entry O=C(c1ccccc1[N+](=O)[O-])N(O)c1ccc(/C=C/c2ccccc2)cc1 — outcome?
Response: n

Prompt: Recorded test outcome, item CC(C)Cn1cnc2c(Sc3c([N+](=O)[O-])ncn3C)nc(N)nc21
Response: y

Prompt: Lab log entry: CC(CC(=O)c1ccc(F)cc1)N1CCN(c2ccccc2)CC1 (stereo not given) — outcome as called in the assay?
Response: n

Prompt: Hello, I am checking results. What call was entered for O=C(CCCl)N1CCN(C(=O)CCCl)c2ccccc21 ?
Response: n

Prompt: Recorded test call requested for Cc1cccc(N2CCN(P(=S)(c3ccccc3)N3CCN(c4cccc(C)c4)CC3)CC2)c1
Response: n

Prompt: Hi, do you know how Cc1ccc(-c2cc(=S)ss2)cc1 came out in this test?
Response: n

Prompt: Which outcome did this test record for the molecule CCC1([N+](=O)[O-])COP(=O)(N2CC2C)OC1 (stereo not given) ?
Response: n

Prompt: # outcome recorded in this test, key = Cc1nc(N)c2c(n1)C(C)N(C(=O)c1ccccc1)C2 (stereo not given)
Response: n

Prompt: Lab log entry: Nc1c(Cl)c(Cl)c2c(c1Cl)/C(=N/O)c1cc(Cl)ccc1-2 — outcome as called in the assay?
Response: n
